// provenance: paper PMC11871066

tested on: trypsin; assay: in vitro; details: isolated enzyme trypsin
ATTRIBUTE_MEASURED: remaining at 8 h, 100 µM
Answer as a quantity: numeral, then unit.

In: Give the measured remaining at 8 h, 100 µM of CCCCCCCCCCCCCC(=O)N[C@@H](CC(N)=O)C(=O)N[C@@H](CC(C)C)C(=O)N[C@]1(C)CCCCCCC=CCCC[C@@](C)(C(=O)N[C@@H](CCC(=O)O)C(=O)N[C@@H](CC(C)C)C(=O)N[C@@H](CC(N)=O)C(N)=O)NC(=O)[C@H](CC(C)C)NC(=O)[C@H](CC(C)C)NC(=O)[C@H](CCCNC(=N)N)NC(=O)[C@H](CC(=O)O)NC(=O)[C@H](CC(C)C)NC(=O)[C@H](CCC(=O)O)NC1=O [compound 2012] .
Out: 111%

###

system: trypsin; assay: in vitro; settings: isolated enzyme trypsin
ATTRIBUTE_MEASURED: remaining at 2 h, 100 µM

In: // lookup remaining at 2 h, 100 µM | system=trypsin | key= CCCCCCCCCCCCCC(=O)N[C@@H](CC(N)=O)C(=O)N[C@@H](CC(C)C)C(=O)N[C@]1(C)CCCCCCC=CCCC[C@@](C)(C(=O)N[C@@H](CCC(=O)O)C(=O)N[C@@H](CC(C)C)C(=O)N[C@@H](CC(N)=O)C(N)=O)NC(=O)[C@H](CC(C)C)NC(=O)[C@H](CC(C)C)NC(=O)[C@H](CCCNC(=N)N)NC(=O)[C@H](CC(=O)O)NC(=O)[C@H](CC(C)C)NC(=O)[C@H](CCC(=O)O)NC1=O
Out: 85%

###

test system: trypsin; test: in vitro; details: isolated enzyme trypsin
ATTRIBUTE_MEASURED: remaining at 6 h, 100 µM (%)
Answers are plain numbers, in %.

In: Give the measured remaining at 6 h, 100 µM of CCCCCCCCCCCCCC(=O)N[C@@H](CC(N)=O)C(=O)N[C@@H](CC(C)C)C(=O)N[C@]1(C)CCCCCCC=CCCC[C@@](C)(C(=O)N[C@@H](CCC(=O)O)C(=O)N[C@@H](CC(C)C)C(=O)N[C@@H](CC(N)=O)C(N)=O)NC(=O)[C@H](CC(C)C)NC(=O)[C@H](CC(C)C)NC(=O)[C@H](CCCNC(=N)N)NC(=O)[C@H](CC(=O)O)NC(=O)[C@H](CC(C)C)NC(=O)[C@H](CCC(=O)O)NC1=O [compound 2012] .
Out: 93

###

test system: trypsin; assay: Trypsin proteolytic resistance assay; settings: immobilized trypsin-agarose resin
Bridge positions count the residues as written; N and C are the ends. Square brackets hold non-standard residues; d marks the D form. Peptide text beside a SMILES is read from it. * marks the point of attachment. Myristoyl = CCCCCCCCCCCCCC(=O)*; R8 = C=CCCCCCC[C@@](C)(N)C(=O)O; S5 = C=CCCC[C@](C)(N)C(=O)O
ATTRIBUTE_MEASURED: remaining at 0.25 h, 100 µM (%)
Answers are plain numbers, in %.

In: Give the measured remaining at 0.25 h, 100 µM of CC(=O)N[C@@H](CC(N)=O)C(=O)N[C@@H](CC(C)C)C(=O)N[C@]1(C)CCCCCCC=CCCC[C@@](C)(C(=O)N[C@@H](CCC(=O)O)C(=O)N[C@@H](CC(C)C)C(=O)N[C@@H](CC(N)=O)C(N)=O)NC(=O)[C@H](CC(C)C)NC(=O)[C@H](CC(C)C)NC(=O)[C@H](CCCNC(=N)N)NC(=O)[C@H](CC(=O)O)NC(=O)[C@H](CC(C)C)NC(=O)[C@H](CCC(=O)O)NC1=O [compound 1907] .
Out: 80

In: Give the measured remaining at 0.25 h, 100 µM of CCCCCCCCCCCCCC(=O)N[C@@H](CC(N)=O)C(=O)N[C@@H](CC(C)C)C(=O)N[C@]1(C)CCCCCCC=CCCC[C@@](C)(C(=O)N[C@@H](CCC(=O)O)C(=O)N[C@@H](CCC(=O)O)C(=O)N[C@@H](CC(N)=O)C(N)=O)NC(=O)[C@H](CC(C)C)NC(=O)[C@H](CC(C)C)NC(=O)[C@H](CCCNC(=N)N)NC(=O)[C@H](CC(=O)O)NC(=O)[C@H](CCC(=O)O)NC(=O)[C@H](CCC(=O)O)NC1=O [compound 2020] (Myristoyl-NL[R8]EEDRLL[S5]EEN-NH2; staple 3-10) .
Out: 97

Continuing:
In: Give the measured remaining at 0.25 h, 100 µM of CC(=O)N[C@@H](CC(N)=O)C(=O)N[C@@H](CC(C)C)C(=O)N[C@@H](CO)C(=O)N[C@@H](CCC(=O)O)C(=O)N[C@@H](CC(C)C)C(=O)N[C@@H](CC(=O)O)C(=O)N[C@@H](CCCNC(=N)N)C(=O)N[C@@H](CC(C)C)C(=O)N[C@@H](CC(C)C)C(=O)N[C@@H](CC(C)C)C(=O)N[C@@H](CCC(=O)O)C(=O)N[C@@H](CC(C)C)C(=O)N[C@@H](CC(N)=O)C(N)=O [LD2, reference compound] .
Out: 76

###

system: FAK/paxillin focal adhesions in SK-MEL-147 cells; experiment: cells; type: cell-based, human; conditions: Homo sapiens, SK-MEL-147; 48 h, n = 3; read-out: IC50, reduction of dual FAK-paxillin containing focal adhesions
ATTRIBUTE_MEASURED: IC50 (µM)
One number for each entry, in µM.

In: // lookup IC50 | system=FAK/paxillin focal adhesions in SK-MEL-147 cells | key= CNC(=O)c1ccc(Nc2ncc(C(F)(F)F)c(NCc3nccnc3N(C)S(C)(=O)=O)n2)cc1
Out: 11.2

###

test system: trypsin; test: in vitro; settings: isolated enzyme trypsin
ATTRIBUTE_MEASURED: remaining at 3 h, 100 µM (%)
Answers are plain numbers, in %.

In: // lookup remaining at 3 h, 100 µM | system=trypsin | key= CCCCCCCCCCCCCC(=O)N[C@@H](CC(N)=O)C(=O)N[C@@H](CC(C)C)C(=O)N[C@]1(C)CCCCCCC=CCCC[C@@](C)(C(=O)N[C@@H](CCC(=O)O)C(=O)N[C@@H](CC(C)C)C(=O)N[C@@H](CC(N)=O)C(N)=O)NC(=O)[C@H](CC(C)C)NC(=O)[C@H](CC(C)C)NC(=O)[C@H](CCCNC(=N)N)NC(=O)[C@H](CC(=O)O)NC(=O)[C@H](CC(C)C)NC(=O)[C@H](CCC(=O)O)NC1=O [compound 2012]
Out: 104

###

test system: trypsin; experiment: Trypsin proteolytic resistance assay; conditions: immobilized trypsin-agarose resin
Bridge positions count the residues as written; N and C are the ends. Square brackets hold non-standard residues; d marks the D form. Peptide text beside a SMILES is read from it. * marks the point of attachment. Myristoyl = CCCCCCCCCCCCCC(=O)*; R8 = C=CCCCCCC[C@@](C)(N)C(=O)O; S5 = C=CCCC[C@](C)(N)C(=O)O
ATTRIBUTE_MEASURED: remaining at 6 h, 100 µM
Answer as a quantity: numeral, then unit.

In: Give the measured remaining at 6 h, 100 µM of CCCCCCCCCCCCCC(=O)N[C@@H](CC(N)=O)C(=O)N[C@@H](CC(C)C)C(=O)N[C@]1(C)CCCCCCC=CCCC[C@@](C)(C(=O)N[C@@H](CCC(=O)O)C(=O)N[C@@H](CCC(=O)O)C(=O)N[C@@H](CC(N)=O)C(N)=O)NC(=O)[C@H](CC(C)C)NC(=O)[C@H](CC(C)C)NC(=O)[C@H](CCCNC(=N)N)NC(=O)[C@H](CC(=O)O)NC(=O)[C@H](CCC(=O)O)NC(=O)[C@H](CCC(=O)O)NC1=O [compound 2020] (Myristoyl-NL[R8]EEDRLL[S5]EEN-NH2; staple 3-10) .
Out: 93%

API: the following record is the query input.
In: Give the measured remaining at 6 h, 100 µM of CC(=O)N[C@@H](CC(N)=O)C(=O)N[C@@H](CC(C)C)C(=O)N[C@@H](CO)C(=O)N[C@@H](CCC(=O)O)C(=O)N[C@@H](CC(C)C)C(=O)N[C@@H](CC(=O)O)C(=O)N[C@@H](CCCNC(=N)N)C(=O)N[C@@H](CC(C)C)C(=O)N[C@@H](CC(C)C)C(=O)N[C@@H](CC(C)C)C(=O)N[C@@H](CCC(=O)O)C(=O)N[C@@H](CC(C)C)C(=O)N[C@@H](CC(N)=O)C(N)=O [LD2, reference compound] .
Out: 0%

###

test system: trypsin; experiment: Trypsin proteolytic resistance assay; settings: immobilized trypsin-agarose resin
Bridge positions count the residues as written; N and C are the ends. Square brackets hold non-standard residues; d marks the D form. Peptide text beside a SMILES is read from it. * marks the point of attachment. Myristoyl = CCCCCCCCCCCCCC(=O)*; R8 = C=CCCCCCC[C@@](C)(N)C(=O)O; S5 = C=CCCC[C@](C)(N)C(=O)O
Kindly supply the reported remaining at 2 h, 100 µM values for the records listed here.
One number for each entry, in %.

Worked cases, answers included:
In: Give the measured remaining at 2 h, 100 µM of CC(=O)N[C@@H](CC(N)=O)C(=O)N[C@@H](CC(C)C)C(=O)N[C@@H](CO)C(=O)N[C@@H](CCC(=O)O)C(=O)N[C@@H](CC(C)C)C(=O)N[C@@H](CC(=O)O)C(=O)N[C@@H](CCCNC(=N)N)C(=O)N[C@@H](CC(C)C)C(=O)N[C@@H](CC(C)C)C(=O)N[C@@H](CC(C)C)C(=O)N[C@@H](CCC(=O)O)C(=O)N[C@@H](CC(C)C)C(=O)N[C@@H](CC(N)=O)C(N)=O [LD2, reference compound] .
Out: 16

In: Give the measured remaining at 2 h, 100 µM of CC(=O)N[C@@H](CC(N)=O)C(=O)N[C@@H](CC(C)C)C(=O)N[C@]1(C)CCCCCCC=CCCC[C@@](C)(C(=O)N[C@@H](CCC(=O)O)C(=O)N[C@@H](CC(C)C)C(=O)N[C@@H](CC(N)=O)C(N)=O)NC(=O)[C@H](CC(C)C)NC(=O)[C@H](CC(C)C)NC(=O)[C@H](CCCNC(=N)N)NC(=O)[C@H](CC(=O)O)NC(=O)[C@H](CC(C)C)NC(=O)[C@H](CCC(=O)O)NC1=O .
Out: 73

API: the following record is the query input.
In: Give the measured remaining at 2 h, 100 µM of CCCCCCCCCCCCCC(=O)N[C@@H](CC(N)=O)C(=O)N[C@@H](CC(C)C)C(=O)N[C@]1(C)CCCCCCC=CCCC[C@@](C)(C(=O)N[C@@H](CCC(=O)O)C(=O)N[C@@H](CCC(=O)O)C(=O)N[C@@H](CC(N)=O)C(N)=O)NC(=O)[C@H](CC(C)C)NC(=O)[C@H](CC(C)C)NC(=O)[C@H](CCCNC(=N)N)NC(=O)[C@H](CC(=O)O)NC(=O)[C@H](CCC(=O)O)NC(=O)[C@H](CCC(=O)O)NC1=O [compound 2020] (Myristoyl-NL[R8]EEDRLL[S5]EEN-NH2; staple 3-10) .
Out: 95
